test system: MDCK; assay: Cytotoxicity against MDCK cells incubated for 72 hrs by MTT assay; assay type: cell-based; conditions: Canis lupus familiaris
reported-property: IC50

CC(C)(C)OC(=O)N1CCC[C@H]1C(=O)N[C@H]1CC[C@]2(C)[C@H]3C(=O)C=C4[C@@H]5C[C@@](C)(C(=O)OCc6ccccc6)CC[C@]5(C)CC[C@@]4(C)[C@]3(C)CC[C@H]2C1(C)C    > 40 µM
CC(C)(C)OC(=O)NCC(=O)N[C@H]1CC[C@]2(C)[C@H]3C(=O)C=C4[C@@H]5C[C@@](C)(C(=O)OCc6ccccc6)CC[C@]5(C)CC[C@@]4(C)[C@]3(C)CC[C@H]2C1(C)C    > 40 µM

# input for lookup
Q: Supply recorded IC50 for CNCC(=O)O[C@H]1CC[C@]2(C)[C@H]3C(=O)C=C4[C@@H]5C[C@@](C)(C(=O)OCc6ccccc6)CC[C@]5(C)CC[C@@]4(C)[C@]3(C)CC[C@H]2C1(C)C here.
Result: 5.76 µM

----------
system: MDCK; experiment: Cytotoxicity against MDCK cells incubated for 72 hrs by MTT assay; assay type: cell-based; settings: Canis lupus familiaris
reported-property: IC50 (µM)
Number only, in µM; omit the unit.

Q: Supply recorded IC50 for CSCC[C@H](N)C(=O)N[C@H]1CC[C@]2(C)[C@H]3C(=O)C=C4[C@@H]5C[C@@](C)(C(=O)OCc6ccccc6)CC[C@]5(C)CC[C@@]4(C)[C@]3(C)CC[C@H]2C1(C)C here.
Result: 6.25

Q: Supply recorded IC50 for CC1(C)[C@@H](OC(=O)CN)CC[C@]2(C)[C@H]3C(=O)C=C4[C@@H]5C[C@@](C)(C(=O)OCc6ccccc6)CC[C@]5(C)CC[C@@]4(C)[C@]3(C)CC[C@@H]12 here.
Result: 4.43

Q: Supply recorded IC50 for CSCC[C@H](N)C(=O)O[C@H]1CC[C@]2(C)[C@H]3C(=O)C=C4[C@@H]5C[C@@](C)(C(=O)OCc6ccccc6)CC[C@]5(C)CC[C@@]4(C)[C@]3(C)CC[C@H]2C1(C)C here.
Result: 39.2

Q: Supply recorded IC50 for CC1(C)[C@@H](OC(=O)[C@@H]2CCCN2)CC[C@]2(C)[C@H]3C(=O)C=C4[C@@H]5C[C@@](C)(C(=O)OCc6ccccc6)CC[C@]5(C)CC[C@@]4(C)[C@]3(C)CC[C@@H]12 here.
Result: 9.63

----------
Let's look at some compounds and their measured pIC50.
test system: MDCK; experiment: Cytotoxicity against MDCK cells incubated for 72 hrs by MTT assay; format: cell-based; conditions: Canis lupus familiaris
# pIC50 is unitless: minus log10 of the molar concentration; print number only

CC1(C)[C@@H](OC(=O)[C@@H](N)Cc2ccccc2)CC[C@]2(C)[C@H]3C(=O)C=C4[C@@H]5C[C@@](C)(C(=O)OCc6ccccc6)CC[C@]5(C)CC[C@@]4(C)[C@]3(C)CC[C@@H]12    4.84

# input for lookup
Q: Supply recorded pIC50 for CC1(C)[C@@H](NC(=O)CN)CC[C@]2(C)[C@H]3C(=O)C=C4[C@@H]5C[C@@](C)(C(=O)OCc6ccccc6)CC[C@]5(C)CC[C@@]4(C)[C@]3(C)CC[C@@H]12 here.
Result: 5.43

----------
tested on: MDCK; assay: Cytotoxicity against MDCK cells incubated for 72 hrs by MTT assay; format: cell-based; settings: Canis lupus familiaris
pIC50: −log10 of the molar value.
reported-property: pIC50

CC[C@H](C)[C@H](NC(=O)OC(C)(C)C)C(=O)N[C@H]1CC[C@]2(C)[C@H]3C(=O)C=C4[C@@H]5C[C@@](C)(C(=O)OCc6ccccc6)CC[C@]5(C)CC[C@@]4(C)[C@]3(C)CC[C@H]2C1(C)C    < 4.40

# input for lookup
Q: Write down the reported pIC50 (system: MDCK) of CSCC[C@H](NC(=O)OC(C)(C)C)C(=O)O[C@H]1CC[C@]2(C)[C@H]3C(=O)C=C4[C@@H]5C[C@@](C)(C(=O)OCc6ccccc6)CC[C@]5(C)CC[C@@]4(C)[C@]3(C)CC[C@H]2C1(C)C
Result: < 4.40

----------
Let's look at some compounds and their measured IC50.
test system: MDCK; test: Cytotoxicity against MDCK cells incubated for 72 hrs by MTT assay; assay type: cell-based; settings: Canis lupus familiaris

CC1(C)[C@@H](O)CC[C@]2(C)[C@H]3C(=O)C=C4[C@@H]5C[C@@](C)(C(=O)O)CC[C@]5(C)CC[C@@]4(C)[C@]3(C)CC[C@@H]12    > 40 µM
CC(C)(C)OC(=O)N1CCC[C@H]1C(=O)O[C@H]1CC[C@]2(C)[C@H]3C(=O)C=C4[C@@H]5C[C@@](C)(C(=O)OCc6ccccc6)CC[C@]5(C)CC[C@@]4(C)[C@]3(C)CC[C@H]2C1(C)C    > 40 µM

# input for lookup
Q: Write down the reported IC50 (system: MDCK) of CC(C)(C)OC(=O)N[C@@H](Cc1ccccc1)C(=O)N[C@H]1CC[C@]2(C)[C@H]3C(=O)C=C4[C@@H]5C[C@@](C)(C(=O)OCc6ccccc6)CC[C@]5(C)CC[C@@]4(C)[C@]3(C)CC[C@H]2C1(C)C
Result: > 40 µM

----------
system: MCF7; assay: Antiproliferative activity against human MCF7 cells incubated for 72 hrs by MTT assay; assay type: functional, cell-based; conditions: MCF7, 72 h
Let's look at some compounds and their measured pIC50.
# pIC50 is unitless: minus log10 of the molar concentration; print number only

CSCC[C@H](N)C(=O)N[C@H]1CC[C@]2(C)[C@H]3C(=O)C=C4[C@@H]5C[C@@](C)(C(=O)OCc6ccccc6)CC[C@]5(C)CC[C@@]4(C)[C@]3(C)CC[C@H]2C1(C)C    5.15

Q: Write down the reported pIC50 (system: MCF7) of CC[C@H](C)[C@H](N)C(=O)O[C@H]1CC[C@]2(C)[C@H]3C(=O)C=C4[C@@H]5C[C@@](C)(C(=O)OCc6ccccc6)CC[C@]5(C)CC[C@@]4(C)[C@]3(C)CC[C@H]2C1(C)C
Result: 5.00

Q: Write down the reported pIC50 (system: MCF7) of CC(C)C[C@H](N)C(=O)O[C@H]1CC[C@]2(C)[C@H]3C(=O)C=C4[C@@H]5C[C@@](C)(C(=O)OCc6ccccc6)CC[C@]5(C)CC[C@@]4(C)[C@]3(C)CC[C@H]2C1(C)C
Result: 4.92

Q: Write down the reported pIC50 (system: MCF7) of CNCC(=O)N[C@H]1CC[C@]2(C)[C@H]3C(=O)C=C4[C@@H]5C[C@@](C)(C(=O)OCc6ccccc6)CC[C@]5(C)CC[C@@]4(C)[C@]3(C)CC[C@H]2C1(C)C
Result: 5.47

Q: Write down the reported pIC50 (system: MCF7) of CC[C@H](C)[C@H](N)C(=O)N[C@H]1CC[C@]2(C)[C@H]3C(=O)C=C4[C@@H]5C[C@@](C)(C(=O)OCc6ccccc6)CC[C@]5(C)CC[C@@]4(C)[C@]3(C)CC[C@H]2C1(C)C
Result: 5.33

----------
tested on: MCF7; experiment: Antiproliferative activity against human MCF7 cells incubated for 72 hrs by MTT assay; format: functional, cell-based; conditions: MCF7, 72 h
Let's look at some compounds and their measured IC50.

Worked examples follow.
CC(C)(C)OC(=O)N1CCC[C@H]1C(=O)O[C@H]1CC[C@]2(C)[C@H]3C(=O)C=C4[C@@H]5C[C@@](C)(C(=O)OCc6ccccc6)CC[C@]5(C)CC[C@@]4(C)[C@]3(C)CC[C@H]2C1(C)C    > 40 µM
CSCC[C@H](NC(=O)OC(C)(C)C)C(=O)O[C@H]1CC[C@]2(C)[C@H]3C(=O)C=C4[C@@H]5C[C@@](C)(C(=O)OCc6ccccc6)CC[C@]5(C)CC[C@@]4(C)[C@]3(C)CC[C@H]2C1(C)C    > 40 µM
CSCC[C@H](NC(=O)OC(C)(C)C)C(=O)N[C@H]1CC[C@]2(C)[C@H]3C(=O)C=C4[C@@H]5C[C@@](C)(C(=O)OCc6ccccc6)CC[C@]5(C)CC[C@@]4(C)[C@]3(C)CC[C@H]2C1(C)C    > 40 µM

Q: Supply recorded IC50 for CC[C@H](C)[C@H](NC(=O)OC(C)(C)C)C(=O)O[C@H]1CC[C@]2(C)[C@H]3C(=O)C=C4[C@@H]5C[C@@](C)(C(=O)OCc6ccccc6)CC[C@]5(C)CC[C@@]4(C)[C@]3(C)CC[C@H]2C1(C)C here.
Result: > 40 µM

Q: Supply recorded IC50 for C[C@H](N)C(=O)O[C@H]1CC[C@]2(C)[C@H]3C(=O)C=C4[C@@H]5C[C@@](C)(C(=O)OCc6ccccc6)CC[C@]5(C)CC[C@@]4(C)[C@]3(C)CC[C@H]2C1(C)C here.
Result: 4.39 µM
